studySystem: Thromboxane A2 receptor (Homo sapiens) (UniProt P21731)
Sequence (P21731 whole entry): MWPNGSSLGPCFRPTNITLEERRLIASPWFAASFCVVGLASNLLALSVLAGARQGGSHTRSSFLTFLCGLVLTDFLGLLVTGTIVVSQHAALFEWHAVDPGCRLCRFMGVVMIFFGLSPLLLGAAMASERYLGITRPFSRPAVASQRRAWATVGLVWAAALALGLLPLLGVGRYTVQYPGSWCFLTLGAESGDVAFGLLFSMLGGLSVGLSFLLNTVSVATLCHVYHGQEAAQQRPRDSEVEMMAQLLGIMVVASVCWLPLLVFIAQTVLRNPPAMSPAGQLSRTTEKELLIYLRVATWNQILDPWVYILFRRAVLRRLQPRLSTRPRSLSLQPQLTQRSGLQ
testSummary: Antiaggregatory potency relative to TP-receptor antagonist SQ 29548
Format: functional
measurementLabel: Relative potency
Give bare numbers.

Take a look at these entries with their results.
>>> numericreadout("O=C(O)COC/C=C1/C[C@H]2C[C@@H](O)[C@H](/C=N/NC(=O)Nc3cccc(Cl)c3)[C@H]2C1")
0.11
>>> numericreadout("O=C(O)CCC/C=C1\\C[C@H]2C[C@@H](O)[C@H](/C=N/NC(=O)Nc3ccccc3)[C@H]2C1")
0.005
>>> numericreadout("O=C(O)CCC/C=C1/C[C@H]2C[C@@H](O)[C@H](/C=N/NC(=O)Nc3ccc([N+](=O)[O-])cc3)[C@H]2C1")
0.33
>>> numericreadout("O=C(O)CCC/C=C1/C[C@H]2C[C@@H](O)[C@H](/C=N/NC(=O)Nc3ccc(Cl)c(Cl)c3)[C@H]2C1")
1
>>> numericreadout("O=C(O)COC/C=C1/C[C@H]2C[C@@H](O)[C@H](/C=N/NC(=O)Nc3ccccc3)[C@H]2C1")
0.014
>>> numericreadout("O=C(O)CCC/C=C1\\C[C@H]2C[C@@H](O)[C@H](/C=N/NC(=O)Nc3ccc(Cl)c(Cl)c3)[C@H]2C1")
0.038

Each compound below has a recorded value; state its Relative potency.
1. O=C(O)CC/C=C1\C[C@H]2C[C@@H](O)[C@H](/C=N/NC(=O)Nc3ccccc3)[C@H]2C1
2. O=C(O)COC/C=C1\C[C@H]2C[C@@H](O)[C@H](/C=N/NC(=O)Nc3ccc([N+](=O)[O-])cc3)[C@H]2C1
3. O=C(O)CC/C=C1/C[C@H]2C[C@@H](O)[C@H](/C=N/NC(=O)Nc3ccc(Cl)c(Cl)c3)[C@H]2C1

1. 0.0007
2. 0.33
3. 0.33

Each compound below has a recorded value; state its Relative potency.
1. O=C(O)CC/C=C1/C[C@H]2C[C@@H](O)[C@H](/C=N/NC(=O)Nc3ccccc3)[C@H]2C1
2. O=C(O)CCC/C=C1/C[C@H]2C[C@@H](O)[C@H](/C=N\OC(c3ccccc3)c3ccccc3)[C@H]2C1
3. O=C(O)CCC/C=C1/C[C@H]2CC[C@H](/C=N/NC(=O)Nc3ccccc3)[C@H]2C1
4. O=C(O)CCC/C=C1/C[C@H]2CC[C@H](/C=N/NC(=O)Nc3ccc(Cl)c(Cl)c3)[C@H]2C1
5. O=C(O)CC/C=C1\C[C@H]2C[C@@H](O)[C@H](/C=N/NC(=O)Nc3ccc(Cl)c(Cl)c3)[C@H]2C1
6. O=C(O)COC/C=C1/C[C@H]2C[C@@H](O)[C@H](/C=N/NC(=O)Nc3ccc(Cl)c(Cl)c3)[C@H]2C1
7. O=C(O)CCC/C=C1/C[C@H]2C[C@@H](O)[C@H](/C=N/OCc3ccccc3)[C@H]2C1
8. O=C(O)CCC/C=C1\C[C@H]2C[C@@H](O)[C@H](/C=N/OCc3ccc4ccccc4c3)[C@H]2C1

[0.059, 0.001, 0.002, 0.003, 0.008, 0.33, 0.001, 0.03]

---

studySystem: Thromboxane A2 receptor (Homo sapiens)
testSummary: Antiaggregatory potency relative to TP-receptor antagonist SQ 29548
Type: functional
For each entry below, report its Relative potency value.
Answers are plain numbers.

Each compound below has a recorded value; state its Relative potency.
1. O=C(O)CCC/C=C1/C[C@H]2C[C@@H](O)[C@H](/C=N/NC(=O)Nc3ccccc3)[C@H]2C1
2. O=C(O)CCC/C=C1\C[C@H]2CC[C@H](/C=N/NC(=O)Nc3ccc(Cl)c(Cl)c3)[C@H]2C1
3. O=C(O)COC/C=C1/C[C@H]2C[C@@H](O)[C@H](/C=N/NC(=O)Nc3ccc([N+](=O)[O-])cc3)[C@H]2C1
4. O=C(O)COC/C=C1\C[C@H]2C[C@@H](O)[C@H](/C=N/NC(=O)Nc3cccc(Cl)c3)[C@H]2C1
5. O=C(O)CCC/C=C1/C[C@H]2C[C@@H](O)[C@H](/C=N/NC(=O)Nc3cccc(Cl)c3)[C@H]2C1
6. O=C(O)COC/C=C1\C[C@H]2C[C@@H](O)[C@H](/C=N/NC(=O)Nc3ccc(Cl)c(Cl)c3)[C@H]2C1
7. O=C(O)CCC/C=C1\C[C@H]2C[C@@H](O)[C@H](/C=N/NC(=O)Nc3cccc(Cl)c3)[C@H]2C1
8. O=C(O)CCC/C=C1/C[C@H]2C[C@@H](O)[C@H](/C=N/OCc3ccc4ccccc4c3)[C@H]2C1

0.17
0.002
1
0.03
0.25
0.11
0.09
0.002

Cited source for all entries: ChEMBL document CHEMBL1151568
